# MEASUREMENT_TARGET: T1, human EphA4 (Homo sapiens, UniProt P54764)
# T1 construct: made in house; not restated for the human SEAP-His protein
# T1 sequence (P54764 20-547): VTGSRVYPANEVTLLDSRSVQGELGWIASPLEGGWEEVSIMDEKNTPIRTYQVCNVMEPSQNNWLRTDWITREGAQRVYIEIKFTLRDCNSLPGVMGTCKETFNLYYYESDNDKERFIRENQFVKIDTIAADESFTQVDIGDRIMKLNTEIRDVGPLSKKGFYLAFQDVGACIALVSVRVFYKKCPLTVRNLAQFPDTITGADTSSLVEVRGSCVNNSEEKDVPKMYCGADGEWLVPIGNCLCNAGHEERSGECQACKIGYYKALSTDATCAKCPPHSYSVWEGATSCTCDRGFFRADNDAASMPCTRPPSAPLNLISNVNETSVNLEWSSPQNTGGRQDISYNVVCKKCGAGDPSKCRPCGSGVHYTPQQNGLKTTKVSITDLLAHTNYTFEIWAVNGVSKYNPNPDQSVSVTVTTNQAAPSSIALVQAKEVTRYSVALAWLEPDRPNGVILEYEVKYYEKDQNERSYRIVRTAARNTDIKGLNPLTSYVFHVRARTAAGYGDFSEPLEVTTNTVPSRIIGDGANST
# PROCEDURE_TEXT: Affinity of humanized antibodies by SPR (Biacore T200)
# Assay type: binding
# CONDITION_CONTEXT: human EphA4 extracellular region-SEAP-His; 1:1 binding model
Provide the recorded kd for the entries that follow.
Number only, in s⁻¹; omit the unit.

Incoming: Fill in: kd of 84 (antibody, V domains shown, constant regions without entry; synthetic humanized antibody light chain variable region sequence; synthetic humanized antibody heavy chain variable region sequence) VL: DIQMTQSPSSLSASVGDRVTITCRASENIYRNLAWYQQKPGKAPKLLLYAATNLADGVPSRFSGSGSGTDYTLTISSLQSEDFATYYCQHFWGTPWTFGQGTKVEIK VH: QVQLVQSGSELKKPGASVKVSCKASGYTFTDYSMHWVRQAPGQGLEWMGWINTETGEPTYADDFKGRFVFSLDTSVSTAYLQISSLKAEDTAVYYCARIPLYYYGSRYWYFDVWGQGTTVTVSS is ___
Outgoing: 0.00056

Incoming: kd for 85 (antibody, V domains shown, constant regions without entry; synthetic humanized antibody light chain variable region sequence; synthetic humanized antibody heavy chain variable region sequence) VL: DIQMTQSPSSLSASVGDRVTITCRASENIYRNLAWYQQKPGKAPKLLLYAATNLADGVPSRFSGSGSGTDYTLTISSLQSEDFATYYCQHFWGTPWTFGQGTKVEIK VH: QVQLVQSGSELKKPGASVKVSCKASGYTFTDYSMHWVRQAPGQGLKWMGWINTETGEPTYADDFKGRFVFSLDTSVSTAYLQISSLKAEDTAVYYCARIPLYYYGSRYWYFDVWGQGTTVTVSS ?
Outgoing: 0.0005

Incoming: Given the entry 87 (antibody, V domains shown, constant regions without entry; synthetic humanized antibody light chain variable region sequence; synthetic humanized antibody heavy chain variable region sequence) VL: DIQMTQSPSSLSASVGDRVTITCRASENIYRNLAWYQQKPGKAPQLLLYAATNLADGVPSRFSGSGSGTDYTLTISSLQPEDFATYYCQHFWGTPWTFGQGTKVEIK VH: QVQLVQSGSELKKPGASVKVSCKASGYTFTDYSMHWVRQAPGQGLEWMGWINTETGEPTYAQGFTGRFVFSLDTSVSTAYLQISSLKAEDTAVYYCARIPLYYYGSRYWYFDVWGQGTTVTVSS , report its measured kd.
Outgoing: 0.00051

Incoming: Please look up its kd: 88 (antibody, V domains shown, constant regions without entry; synthetic humanized antibody light chain variable region sequence; synthetic humanized antibody heavy chain variable region sequence) VL: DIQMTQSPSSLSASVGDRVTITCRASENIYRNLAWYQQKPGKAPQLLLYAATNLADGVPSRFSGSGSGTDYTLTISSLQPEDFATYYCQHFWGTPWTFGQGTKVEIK VH: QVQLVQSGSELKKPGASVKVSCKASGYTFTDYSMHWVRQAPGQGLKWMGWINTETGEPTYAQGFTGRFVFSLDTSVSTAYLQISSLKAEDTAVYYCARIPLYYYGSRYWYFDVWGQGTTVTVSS
Outgoing: 0.00042
